Entry source: a melting point compilation (Tetko et al.; mined from patent text by program, amines drawn as free bases though some values may be those of a salt)

OBSERVABLE: melting point

// known answers, use as guide
- MOLECULE: "CCCCCCNC(=O)Nc1ccccc1C(=O)NCC1CCN(C(c2ccccc2)c2ccccc2)CC1"
  melting point: "168 to 169 °C"
- MOLECULE: "COCSCCNC(=C[N+](=O)[O-])SC"
  melting point: "54 to 58 °C"
- MOLECULE: "CCc1ccccc1OC(CC)C(=O)OC1CC(O)C=C2C=CC(C)C(CCC3CC(O)CC(=O)O3)C21 (mixture of isomers)"
  melting point: "108 to 110 °C"

Query string: Look up and report measured melting point for this entry: "O=C(CCc1cccc(Oc2ccccc2)c1)c1ccc[nH]1"
Result string: 75 to 76 °C

Query string: Look up and report measured melting point for this entry: Cc1ccc(S(=O)(=O)OCC2COC(C(F)(F)F)(C(F)(F)F)O2)cc1 (stereo unspecified)
Result string: 57 to 58.5 °C

Query string: Look up and report measured melting point for this entry: "Cc1cc(C(=O)N2CCCC2)ccc1Br"
Result string: 55 to 57 °C

Query string: Look up and report measured melting point for this entry: "O=C(O)CCC(=O)c1cc(Cl)ccc1O"
Result string: 172 to 173 °C

Query string: Look up and report measured melting point for this entry: "CCOC(=O)c1c[nH]c2cc(F)c(OC)cc2c1=O"
Result string: 280 °C

----------
Measured melting point accompanies every entry in the list below.

Query string: Look up and report measured melting point for this entry: "O=C1CC(c2coc3ccccc23)=Nc2cc3c(cc21)OCO3"
Result string: > 315 °C

Query string: Look up and report measured melting point for this entry: O=[N+]([O-])c1cn2c(n1)OC(COc1ccc(N3CCN(CC4CCN(Cc5ccc(C(F)(F)F)cc5)CC4)CC3)cc1)CC2 (stereo not drawn)
Result string: 214 to 217 °C

Query string: Look up and report measured melting point for this entry: "CC(=O)c1c(CCc2ccc(F)cc2)[nH]c2ccc(Cl)cc12"
Result string: 170 to 172 °C

Query string: Look up and report measured melting point for this entry: "CCOC(=O)Cc1ccc(-c2ccc3c(=O)c(C(=O)NC)c(N)n(CC)c3n2)cc1"
Result string: 195 °C

Query string: Look up and report measured melting point for this entry: "CCCCOc1ccc(S(=O)(=O)C2(C(=O)O)CCN(Cc3ccc(F)cc3)CC2)cc1"
Result string: 112 °C

Query string: Look up and report measured melting point for this entry: CCCCOCC(CO)OCn1cnc2c(O)nc(N)nc21 (stereo not drawn)
Result string: 208 to 211 °C

Query string: Look up and report measured melting point for this entry: "CCNc1c(F)cc2c(=O)c(C(=O)O)cn(-c3cc(N)c(F)cc3F)c2c1Cl"
Result string: 252 to 255 °C

Query string: Look up and report measured melting point for this entry: "CN(C)C1CCN(C(=O)c2ccc(-c3[nH]nc4c3C(=O)c3c(NC(=O)NN5CCOCC5)cccc3-4)s2)CC1"
Result string: 185 to 186 °C

Query string: Look up and report measured melting point for this entry: "ClCSc1ncc(Cl)cn1"
Result string: 78 °C

Query string: Look up and report measured melting point for this entry: NC(=O)C(F)(I)C(F)(F)F (stereo not drawn)
Result string: 75 to 77 °C

Query string: Look up and report measured melting point for this entry: "O=C(Nc1ccc(F)nc1)c1cccc(-c2cccc3oc(Cc4cccc(C(F)(F)F)c4)cc23)c1"
Result string: 117 to 118 °C

Query string: Look up and report measured melting point for this entry: O=C(O)c1ccc(CCNC(=O)C2Cc3ccccc3N2S(=O)(=O)c2ccc(-c3cccc(C(F)(F)F)c3)cc2)cc1 (stereo not drawn)
Result string: 106 °C

Query string: Look up and report measured melting point for this entry: "COc1cc(/C=C/C=C/C(=O)NCCCN2CCC(c3c[nH]c4ccccc34)CC2)cc(OC)c1O"
Result string: 176 to 179 °C

----------
OBSERVABLE: melting point

// known answers, use as guide
- COMPOUND: "C=CCNC(=O)CCCC(=O)O"
  REPORTED RESULT: "35.1 °C"
- COMPOUND: "CN1CCC(OC2c3ccccc3CCn3c2nc(I)c3C(N)=O)CC1 (configuration not stated)"
  REPORTED RESULT: "85 °C"
- COMPOUND: "Nc1ccn2nc(N3CCCC3)nc2c1"
  REPORTED RESULT: "221 to 225 °C"

Query string: Look up and report measured melting point for this entry: "CS(=O)(=O)OCCc1cc([N+](=O)[O-])ccc1COS(C)(=O)=O"
Result string: 88 to 89 °C

Query string: Look up and report measured melting point for this entry: "N#Cc1ccc(-c2nc(COc3ccc(CCCn4ccnc4)cc3)co2)cc1"
Result string: 98 to 99 °C

Query string: Look up and report measured melting point for this entry: "Cc1[nH]c(-c2nc3ccc(C(=O)c4ccccc4)cc3[nH]2)c(C)c1C(=O)O"
Result string: > 300 °C

Query string: Look up and report measured melting point for this entry: "CN(C)CCCCCC(=O)O"
Result string: 89 to 91 °C

Query string: Look up and report measured melting point for this entry: "CCOC(=O)N1CCN=C1CC(c1ccccc1)c1ccccc1"
Result string: 78 to 80 °C

----------
OBSERVABLE: melting point

// known answers, use as guide
- COMPOUND: "COc1ccc(C(C)C)cc1-c1cc(C(=O)OCc2ccccc2)c(OCc2ccccc2)cc1OCc1ccccc1"
  melting point: "139 to 141 °C"
- COMPOUND: "CS(=O)(=O)C1C(O)C(CO)OC1n1ccc(=O)[nH]c1=O (centres undefined)"
  melting point: "227 to 228 °C"
- COMPOUND: "N[C@@]1(C(=O)O)C[C@H](NC(=O)Nc2ccccc2F)[C@H]2[C@H](C(=O)O)[C@H]21 (relative stereo)"
  melting point: "> 270 °C"

Query string: Look up and report measured melting point for this entry: CCOc1ccccc1Sc1ccc(/C=C/C(=O)N2CCCC(C(=O)O)C2)cc1Cl (centres undefined)
Result string: 166 to 171 °C

Query string: Look up and report measured melting point for this entry: "CNc1nonc1-c1nc2ccccc2n1CC(=O)c1ccc(Cl)cc1"
Result string: 210 to 214 °C

Query string: Look up and report measured melting point for this entry: "Cc1ccc2[nH]cc(C3=C(c4c[nH]c5ccc(C)cc45)C(=O)N(C)C3=O)c2c1"
Result string: 270 to 275 °C

Query string: Look up and report measured melting point for this entry: COc1ccc(NC2C3CCC(CC3=O)C2(C)c2ccccc2)cc1 (centres undefined)
Result string: 138 to 139 °C

Query string: Look up and report measured melting point for this entry: OC[C@@H](O)[C@@H]1OC[C@H](O)[C@H]1O (racemic)
Result string: 69.5 to 71 °C

Query string: Look up and report measured melting point for this entry: "CCOC(=O)C(=O)c1ccc(OCC(=O)N2CCOCC2)cc1"
Result string: 103 to 106 °C

Query string: Look up and report measured melting point for this entry: "CCCCCCCCCCCCCCCCCCOc1ccc(C(=O)O)c(OCCCOc2ccc(OCc3ccccc3)cc2)c1"
Result string: 102 to 104 °C

Query string: Look up and report measured melting point for this entry: "Nc1c(F)c(N2CCC(=NO)CC2)c(F)c2c1c(=O)c(C(=O)O)cn2C1CC1"
Result string: 298 to 300 °C

Query string: Look up and report measured melting point for this entry: "Cc1ccc(NCCSC#N)c([N+](=O)[O-])c1"
Result string: 123 to 125 °C

Query string: Look up and report measured melting point for this entry: "CCOC(=O)c1cnoc1-c1cc(Cl)c(Cl)s1"
Result string: 120 to 121 °C

Query string: Look up and report measured melting point for this entry: O=C1NC2Cc3ccccc3C2O1 (centres undefined)
Result string: 205 to 206 °C

Query string: Look up and report measured melting point for this entry: "Cc1ccc(N2CCN(Cc3c[nH]c4ncccc34)CC2)nc1"
Result string: 204 to 205 °C

Query string: Look up and report measured melting point for this entry: "COc1cc(OC(F)F)nc(N)n1"
Result string: 106 to 107 °C

Query string: Look up and report measured melting point for this entry: "CCOC(=O)CNC(=S)NC(=Nc1ccc([N+](=O)[O-])cc1)c1ccccc1"
Result string: 189 to 190 °C

Query string: Look up and report measured melting point for this entry: COc1cc2c(=O)c(S(C)=O)cn(C)c2cc1Cl (centres undefined)
Result string: 263 to 265 °C

Query string: Look up and report measured melting point for this entry: NC(CCC(=O)O)c1cccs1 (centres undefined)
Result string: 148 to 156 °C

----------
Measured melting point accompanies every entry in the list below.

Query string: Look up and report measured melting point for this entry: "N#Cc1ccccc1C#CCOCCn1cnc2c(N)nc3ccccc3c21"
Result string: 180 to 183 °C
